// reported viability at 48 h, 3 µM per item
- EXPERIMENT_SUMMARY: in vitro; note: reference of the scale not given here
- RUN_CONDITIONS: human, HepG2-A16-CD81EGFP cells, uninfected
Write the answer as a number in %, unit excluded.

Below, each entry is followed by its recorded viability at 48 h, 3 µM result.
| COMPOUND | UNIT_OF_MEASUREMENT | RECORDED_VALUE |
| --- | --- | --- |
| CCCNC(=O)c1ccc(N2CCC3(CC2)CC(c2cccc(Br)c2)=NO3)c(NC(=O)c2ccco2)c1 | % | 104 |
| CCN1CCN(C(=O)c2ccc3c(c2)N(Cc2ccc(Cl)cc2)C(=O)c2ccccc2[S+]3[O-])CC1 (centres unmarked) | % | 108 |
| O=C(Nc1ccc2c(N3CCCC3)ncnc2c1)c1cccc(Br)c1 | % | 97.5 |
| Cc1cc(NC(=O)CN2CCN(c3ccc(O)cc3)CC2)no1 | % | 107 |

Output viability at 48 h, 3 µM of O=C(Nc1ccccc1O)c1ccc(NC(=O)C2CC2)cc1
108

Supply measured viability at 48 h, 3 µM of CC(C)Oc1ccc(CCc2nnc(S)n2Cc2ccccc2)cc1 in your reply.
103

Tell us which viability at 48 h, 3 µM value is on record for CCCCCNc1nc2sc3c(c2c(=O)n1-c1cccc(Cl)c1)CCN(C)C3
105

Please list viability at 48 h, 3 µM recorded for the compound COc1cc(NC(=O)c2cc3c(Cl)nc4ccccc4c3s2)cc(OC)c1OC
84

Tell me viability at 48 h, 3 µM reported for Cc1ccc2c(c1)-c1c(ssc1=S)C(C)(C)N2C(=O)c1ccco1
100

Dear colleague, please send me the reported viability at 48 h, 3 µM for CCOC(=O)C1=C(C)NC2=C(C(=O)CCC2)C1c1cn(Cc2ccc(Cl)cc2Cl)nc1-c1ccccc1 (centres unmarked) when you can.
96

Complete the entry with viability at 48 h, 3 µM for Cc1cccc(Cl)c1/N=C(\S)N1CCN(c2ccc([N+](=O)[O-])cn2)CC1
93

Return reported viability at 48 h, 3 µM. Input compound: O=c1cc(CSc2ccc(Cl)cc2)nc(-c2ccccn2)[nH]1
73

Quote viability at 48 h, 3 µM reported for CCOCc1cnc(C)nc1NCC(=O)c1c(C)[nH]c2cc(C)ccc12 please.
94

Assign viability at 48 h, 3 µM to the following record: COc1ccc(CN2CCCC3(C2)C(NC2CCCCC2)=NC(=O)N3c2cc(F)cc(F)c2)cc1 (centres unmarked)
105

Return value of viability at 48 h, 3 µM for input Cc1cccn2c(=O)c3cc(C(=O)NC4CCCC4)c(=N)n(CCc4ccccc4)c3nc12 , no commentary.
92

Answer with the recorded viability at 48 h, 3 µM for the compound listed here: O=C(NC1CC1)c1ccc(CSCc2ccccc2Cl)o1
100

Tell me measured viability at 48 h, 3 µM for CCSc1nnc(SCC(=O)c2c(N)n(C)c(=O)n(C)c2=O)s1 please.
88

###

Parameter viability at 3 µM: see the listing below.
- EXPERIMENT_SUMMARY: in vitro
- RUN_CONDITIONS: human, hepg2-a16-cd81egfp cells
Note: unit % is implicit; provide only the numeric part.

Completed entries (count: 2):
| SUBSTANCE_SMILES | QUANTITY_MEASURED | UNIT_OF_MEASUREMENT | RECORDED_VALUE |
| --- | --- | --- | --- |
| C=C1C(=O)O[C@@H]2C[C@@H](C)[C@@H]3C=CC(=O)[C@@]3(C)[C@@H](OC(=O)CC(=O)O[C@H]3[C@@H]4C(=C)C(=O)O[C@@H]4C[C@@H](C)[C@@H]4C=CC(=O)[C@]43C)[C@H]12 | viability at 3 µM | % | 16.4 |
| Oc1c(Cl)cc(Cl)cc1CN1CCN(Cc2ccccc2)CC1 | viability at 3 µM | % | 92 |

Specify viability at 3 µM for C[n+]1c2ccccc2nc2ccc(NCCO)cc21.[O-][Cl+3]([O-])([O-])[O-] and stop.
97.2
